Provenance of the data: patent US9790169B2

A collection of molecules and their measured IC50
Molecular target: human IDO1 (Homo sapiens)
Sequence (P14902 whole entry): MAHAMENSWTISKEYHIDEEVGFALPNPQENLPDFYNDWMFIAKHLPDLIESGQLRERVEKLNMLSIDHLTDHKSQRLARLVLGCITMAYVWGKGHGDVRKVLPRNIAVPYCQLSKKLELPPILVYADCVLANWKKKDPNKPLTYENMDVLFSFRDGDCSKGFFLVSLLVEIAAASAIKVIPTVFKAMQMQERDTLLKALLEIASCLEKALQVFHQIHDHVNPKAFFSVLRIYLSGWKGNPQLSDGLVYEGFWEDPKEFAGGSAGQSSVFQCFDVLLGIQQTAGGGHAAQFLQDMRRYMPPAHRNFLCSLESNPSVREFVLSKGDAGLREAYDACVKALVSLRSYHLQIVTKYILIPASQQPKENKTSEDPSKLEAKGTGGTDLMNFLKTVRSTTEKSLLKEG
Assay: Assessment of human IDO-1 inhibitory activity in HEK cells (human IDO1/HEK293 cells, kynurenine read-out with Ehrlich reagent, absorbance 490 nm)
Type: cell-based
Set-up: expressed in transfected cells
Conditions: HEK Human IDO-1 cellular assay

Here's what some known entries look like.
INSERT INTO assay_data (molecule, test_target, measured_parameter, experimental_value) VALUES
  ('CCN(c1ccc([C@H](COC)CC(=O)O)cc1NC(=O)Nc1cnc(C)nc1)C1CCOCC1 (single isomer, unassigned)', 'human IDO1 (Homo sapiens)', 'IC50', '> 50 nM'),
  ('CC(CC(=O)O)c1ccc(N2C[C@@H](C)O[C@@H](C)C2)c(Nc2ccc(Cl)cc2)c1 (single isomer, unassigned) [Example 745]', 'human IDO1 (Homo sapiens)', 'IC50', '< 50 nM'),
  ('CCN(c1ccc([C@@H](COC)CC(=O)O)cc1NC(=O)Nc1ccc(OC(F)F)cc1)C1CCOCC1 (single isomer, unassigned)', 'human IDO1 (Homo sapiens)', 'IC50', '> 50 nM');

In: I have this molecule here, CCOc1ccc(Nc2cc([C@@H](CC)CC(=O)O)ccc2N(CC)C2CCOCC2)nc1 (single isomer, unassigned) , and I need its recorded IC50.
Out: < 5 nM

In: For CCC(CC(=O)O)c1ccc(N(CC)C2CCCOC2)c(NC(=O)Nc2ccc(C)cc2)c1 (single isomer, unassigned) [Example 73 D2] then?
Out: < 5 nM

In: For CC[C@@H](CC(=O)O)c1ccc(N(CC(C)C)C2CCS(=O)(=O)CC2)c(Nc2ccc3c(c2)OC(F)(F)O3)c1 (single isomer, unassigned) then?
Out: < 5 nM

In: For "CCN(c1ccc(C(C)(C)CC(=O)O)cc1Nc1ccc2c(c1)OC(F)(F)O2)C1CCOCC1" then?
Out: < 5 nM

* * *

Target: UniProt:P14902
Test: Assessment of human IDO-1 inhibitory activity in Hela cells (Interferon-gamma stimulated HeLa cells, Ehrlich reagent, absorbance 490 nm)
Format: cell-based
Parameters: endogenous in cells; host or cells: HeLa cells stimulated with interferon-gamma
Details: Hela Human IDO-1 cellular assay
Measured Parameter: IC50

INSERT INTO measurements (compound, experimental_value) VALUES
  ('CCCN(c1ccc([C@H](CC)CC(=O)O)cc1Nc1cnc(OCC)nc1)C1CCOCC1 (single isomer, unassigned) [Example 546]', '< 5 nM'),
  ('CCc1ncc(Nc2cc([C@H](CC)CC(=O)O)ccc2N(CC)C2CCOCC2)cn1 (single isomer, unassigned) [Example 1364]', '< 5 nM'),
  ('COc1ccc(Nc2cc(C(CC(=O)O)C3CC3)ccc2N2C[C@@H](C)O[C@@H](C)C2)cn1 (single isomer, unassigned) [Example 246]', '> 50 nM'),
  ('CCCN(c1ccc(C(COC)CC(=O)O)cc1Nc1ccc2c(c1)OC(F)(F)O2)C1CCOCC1 (single isomer, unassigned) [Example 571]', '< 5 nM'),
  ('CCN(c1ccc(C(C)(C)CC(=O)O)cc1Nc1ccc(Cl)cc1)C1CCS(=O)(=O)CC1 [Example 180]', '< 5 nM');

Field: next compound
In: Could you share what IC50 was measured for CCN(c1ccc(C(C)CC(=O)O)cc1Nc1cnc(OC(C)C)nc1)C1CCOCC1 (single isomer, unassigned) [Example 622] , tested on UniProt:P14902?
Out: > 50 nM
